- Test system: RH-1 (Ewing's Sarcoma);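 further: after 72 h of two-drug dosing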
- protocol: Bliss excess, mean over the matrix (fraction); higher = more synergy
Short version: Bliss excess at least 0.007 is condition met, less is condition not met.

compound: COc1nnc2ccc(N3CCC(c4ccc(OCCN5CCN(C)C(=O)[C@H]5C)cc4)CC3)nn12 [AZD5153] + CC1(C)CCC(CN2CCN(c3ccc(C(=O)NS(=O)(=O)c4ccc(NCC5CCOCC5)c([N+](=O)[O-])c4)c(Oc4cnc5[nH]ccc5c4)c3)CC2)=C(c2ccc(Cl)cc2)C1 [Venetoclax] (first compound max 1 µM, 7x7, partner max 1 µM)
category_label: condition not met
//
compound: NC1(C(=O)N[C@@H](CCO)c2ccc(Cl)cc2)CCN(c2ncnc3[nH]ccc23)CC1 [Capivasertib] + COc1nnc2ccc(N3CCC(c4ccc(OCCN5CCN(C)C(=O)[C@H]5C)cc4)CC3)nn12 [AZD5153] (first compound max 10 µM, 7x7, partner max 1 µM)
category_label: condition met
//
compound: C[C@@H](c1ccc2nccn2c1)n1nnc2ncc(-c3cnn(C)c3)nc21 [Savolitinib] + CN(CC[C@H](CSC1=CC=CC=C1)NC2=C(C=C(C=C2)S(=O)(=O)NC(=O)C3=CC=C(C=C3)N4CCC(CC4)[C@H](C5=CC=CC=C5C6=CC=C(C=C6)Cl)O)S(=O)(=O)C(F)(F)F)CCO [AZD4320] (first compound max 1 µM, 7x7, partner max 1 µM)
category_label: condition met
//
compound: COc1cccc(OCCCN)c1-c1cc(Nc2cnc(C#N)cn2)n[nH]1 [Prexasertib] + C=CCn1c(=O)c2cnc(Nc3ccc(N4CCN(C)CC4)cc3)nc2n1-c1cccc(C(C)(C)O)n1 [AZD1775] (first compound max 1 µM, partner max 1 µM)
category_label: condition met
//
compound: Cc1c2c(nn1C)CSCc1cc(n(C)n1)CSc1cc(c3ccccc3c1)OCCCc1c(C(=O)O)n(C)c3c-2c(Cl)ccc13 [AZD5991] + CCN(CCO)CCCOc1ccc2c(Nc3cc(CC(=O)Nc4cccc(F)c4)[nH]n3)ncnc2c1 [AZD2811] (first compound max 1 µM, 7x7, partner max 1 µM)
category_label: condition not met

Lab note: next compound to report on.
Query: Please indicate if the recorded Bliss excess for Cc1cc2ncnn2cc1Nc1ncc2c(n1)n(C1CCOCC1)c(=O)n2C [AZD7648] + CCN(CCO)CCCOc1ccc2c(Nc3cc(CC(=O)Nc4cccc(F)c4)[nH]n3)ncnc2c1 [AZD2811] (first compound max 10 µM, 7x7, partner max 1 µM) meets or exceeds 0.007.
Result: condition not met
